meta.source: patent US6503941B2

Measured Tyrosinase inhibition effect (%) accompanies every entry in the list below.
System: tyrosinase
Experiment: Tyrosinase inhibition effect (whitening activity)
Assay type: biochemical
Conditions: 0.1%(wt/wt) sample solution; tyrosine 0.2 mg/ml, tyrosinase 680 units/ml, 37° C.
I only need the number, in %, no unit after it.

The cases that follow already have their Tyrosinase inhibition effect (%) on record.
O=C1O[C@H]([C@@H](O)CO)C(O)=C1O
30
O=c1cc(CO)occ1O
91
OC[C@H]1O[C@@H](Oc2ccc(O)cc2)[C@H](O)[C@@H](O)[C@@H]1O
40

Next:
Any idea what Tyrosinase inhibition effect (%) was measured for COc1cc(C=CC(=O)Oc2ccc3c(c2)oc(=O)c2c4ccc(OC(=O)C=Cc5ccc(O)c(OC)c5)cc4oc32)ccc1O ?
76
